System: HOP-62
Experiment: NCI tumour cell line growth inhibition, 48 h
The source made the active and inactive calls. No stated cut-off is given here; in the data, active = GI50 up to about 1.1 µM and inactive = higher. Where a SMILES comes first, the peptide text is derived from it.
observation-type: GI50

Before answering, review these 4 worked examples.
compound: COc1ccc(/N=N/c2c(C)c(C#N)c(=S)n(C3OC(CO)C(O)C(O)C3O)c2C)cc1 (stereo not given)
target-or-test-system: HOP-62
GI50: 42.3 µM (inactive)

compound: O=C(CC(C(=O)c1cccs1)c1ccsc1)c1ccc(Cl)s1 (stereo not given)
target-or-test-system: HOP-62
GI50: > 100 µM (inactive)

compound: CN(C(=O)Cc1ccc(Cl)c(Cl)c1)[C@@H]1CCCC[C@H]1[N+]1(C)CC=CC1
target-or-test-system: HOP-62
GI50: > 100 µM (inactive)

compound: CNC(=O)CNC(=O)C(NC(=O)CNC(=O)C1CCCN1C(=O)C(C)NC(=O)C(NC(C)=O)C(C)C)C(C)C (stereo not given) (Ac-VAPGVG-NHMe; configuration not given here)
target-or-test-system: HOP-62
GI50: > 100 µM (inactive)

// next item, GI50 requested
Query `Cn1cc[n+](-c2cc(=O)n(C)c(=O)[n-]2)c1` yields GI50 of > 100 µM (inactive)

====

# GI50 annotations
System: HCC 2998
Assay: NCI tumour cell line growth inhibition, 48 h
Calls of active or inactive are those of the source. Cut-off read from the data, not from the text of the source: active = GI50 up to about 1.1 µM and inactive = higher.

compound: CN(C)CCNC(=O)c1cccc2[nH]c(-c3ccccc3)nc12
GI50: 15.3 µM (inactive)
//
compound: N#CCCN(CCCN(CCCN(C(=O)Nc1ccccc1)c1ccccc1)C(=O)Nc1ccccc1)C(=O)Nc1ccccc1
GI50: > 100 µM (inactive)
//
compound: Cc1cc2c(c(S(=O)(=O)c3ccc(Cl)cc3[N+](=O)[O-])c1)NCCC2
GI50: > 100 µM (inactive)

Query `Cc1cccc(/C=N\NC(=S)N2CCCCC2)n1` yields GI50 of 9.77 µM (inactive)

Query CN(C(=O)C12C3C4C1C1C4(C(=O)C45C6C7C4C4C5C6C74C)C3C12C)C(C)(C)C (stereo not drawn) yields GI50 of 91 µM (inactive)

====

Tested on: A549
Test: NCI tumour cell line growth inhibition, 48 h
Active and inactive are the calls of the source. Rule as the data show it: active = GI50 up to about 1.1 µM and inactive = higher.
# GI50 annotations

molecule: c1ccc(-c2nnn(CCN3CCCCC3)n2)cc1
GI50: > 100 µM (inactive)

Query `Cc1cccc(NC(=S)Nc2cccc(Cl)c2)n1` yields GI50 of > 100 µM (inactive)

====

Test system: Malme-3M
Assay: NCI tumour cell line growth inhibition, 48 h
The source made the active and inactive calls. No stated cut-off is given here; in the data, active = GI50 up to about 1.1 µM and inactive = higher. Where a SMILES comes first, the peptide text is derived from it.
# GI50 annotations

Before answering, review these 4 worked examples.
compound: CC1(C)[C@@H]2CC[C@]1(C)[C@H](OC(=O)/C=C/c1ccccc1)C2
observation-type: GI50
result: 17.3 µM (inactive)

compound: CC1(C)CS(=O)(=O)CC(C)(C)C(=N/N)/C1=N\N
observation-type: GI50
result: > 100 µM (inactive)

compound: O=[N+]([O-])c1ccc(-c2nc3cc([N+](=O)[O-])ccc3[nH]2)cc1
observation-type: GI50
result: 31.3 µM (inactive)

compound: CNC(=O)CNC(=O)C(NC(=O)CNC(=O)C1CCCN1C(=O)C(C)NC(=O)C(NC(C)=O)C(C)C)C(C)C (stereo unspecified) (Ac-VAPGVG-NHMe; configuration not given here)
observation-type: GI50
result: > 100 µM (inactive)

Query `Cc1nn(-c2ccccc2)c(C)c1/C=N/N=C1\S/C(=C\c2ccc(Cl)cc2)C(=O)N1c1ccccc1` yields GI50 of 28.1 µM (inactive)

Query `CC(=O)Oc1ccc2c(-c3ccccc3)c(Oc3ccc(Cl)cc3)c(=O)oc2c1` yields GI50 of 15.6 µM (inactive)

Query C=CCN(c1cc(OC)c2c(c1[N+](=O)[O-])C(C)(SC)C(=O)N2)S(C)(=O)=O (stereo unspecified) yields GI50 of 97.5 µM (inactive)

Query `N=C(N)N/N=C/c1c(Cl)nc2sccn12` yields GI50 of 23.3 µM (inactive)

Query `COc1ccc(-c2c(/C=N/OCC(=O)O)c3sc4ccccc4n3c2/C=N/OCC(=O)O)cc1` yields GI50 of > 50 µM (inactive)

Query `O=C(O)c1cnc2c(ccc3ncc(C(=O)O)c(O)c32)c1O` yields GI50 of > 100 µM (inactive)

Query `Oc1ccc(CCNCc2cc3c(cc2Br)OCO3)cc1` yields GI50 of 62.8 µM (inactive)

Query `Cc1ccc2[nH]c(Sc3c([N+](=O)[O-])ncn3C)nc2c1` yields GI50 of 15.8 µM (inactive)

Query `NC(=O)CO/N=C1/C(=C2/C(=O)Nc3ccccc32)Nc2ccccc21` yields GI50 of > 100 µM (inactive)

Query O=C(CC(C(=O)c1cccs1)c1ccsc1)c1ccc(Cl)s1 (stereo unspecified) yields GI50 of > 100 µM (inactive)

Query `CO/N=C(\C(=O)[N-]n1cn[n+](CC(=O)OC(C)(C)C)c1)c1csc(NC(c2ccccc2)(c2ccccc2)c2ccccc2)n1` yields GI50 of > 10 µM (inactive)

Query `O=C1N/C(=N\N=C\c2ccccc2)C2(CCCCC2)O1` yields GI50 of > 100 µM (inactive)

Query O=[N+]([O-])C1C2C=CC(C2)[C@H]1c1ccccc1Cl (stereo partly specified) yields GI50 of 99.1 µM (inactive)

Query `NCCSSCc1ccccc1CSSCCN` yields GI50 of 72.3 µM (inactive)

Query `O=C(CSc1nnc(Cc2ccccc2)o1)Nc1cccc(Cl)c1` yields GI50 of 63.7 µM (inactive)

Query `O=C(O)CCSC(=O)Nc1ccccc1Cl` yields GI50 of > 100 µM (inactive)

Query `CCOC(=O)c1cccc(NC(=O)CI)c1` yields GI50 of 1.21 µM (inactive)

====

Tested on: MOLT-4
Assay: NCI tumour cell line growth inhibition, 48 h
Active and inactive are the calls of the source. No stated cut-off is given here; in the data, active = GI50 up to about 1.1 µM and inactive = higher.
# GI50 annotations

compound: COc1ccc(N2C(=O)CC(C3CC(C(C)(C)C)CCC3=O)C2=O)cc1 (stereo unspecified)
result: > 100 µM (inactive)

compound: COC(=O)C1=CC2C(=O)OC1C1C(=O)NC(=O)C21 (stereo unspecified)
result: > 100 µM (inactive)

// next item, GI50 requested
Query `COC(=O)[C@H](Cc1ccccc1)NC(=O)N1CCCN(C(=O)N[C@@H](Cc2ccccc2)C(=O)OC)CCCN(C(=O)N[C@@H](Cc2ccccc2)C(=O)OC)CCC1` yields GI50 of 17.7 µM (inactive)

====

Tested on: SF-268
Test: NCI tumour cell line growth inhibition, 48 h
Calls of active or inactive are those of the source. No stated cut-off is given here; in the data, active = GI50 up to about 1.1 µM and inactive = higher.
observation-type: GI50

Before answering, review these 2 worked examples.
compound: C/C(=N\Nc1nc2ccccc2[nH]1)c1cccc[n+]1[O-]
target-or-test-system: SF-268
GI50: > 100 µM (inactive)
--
compound: CC(C)=CC[C@H]1C[C@]2(CC=C(C)C)C(=O)[C@@](CC=C(C)C)(C(=O)C(C(=O)c3ccccc3)=C2O)C1(C)C [6-EPI-CLUSIANONE]
target-or-test-system: SF-268
GI50: 10.2 µM (inactive)

Query CN1c2ccccc2N(C)C2C1N(C)c1ccccc1N2C (stereo not given) yields GI50 of 12.3 µM (inactive)

Query CC1C(=O)C(C)C(c2cccs2)N(N=O)C1c1cccs1 (stereo not given) yields GI50 of > 100 µM (inactive)

Query CCC(Nc1ncnc2nc[nH]c12)C(=O)O (stereo not given) yields GI50 of > 100 µM (inactive)

====

System: MCF7
Experiment: NCI tumour cell line growth inhibition, 48 h
The source made the active and inactive calls. Cut-off read from the data, not from the text of the source: active = GI50 up to about 1.1 µM and inactive = higher.
Field 'call' accepts active, inactive

Consider the following illustrative entries.
molecule: CC1/C=C/C=C/CC/C=C/C=C/C=C/C=C/C(OC2OC(C)C(O)C(N)C2O)CC2OC(CC(O)C(O)CCC(O)CC(O)CC(O)CC(=O)OC(C)C(C)C1O)CC(O)C2C(=O)O (stereo not given)
target-or-test-system: MCF7
category-label: inactive
--
molecule: Nc1ncnc2c1ncn2C(=O)NC12CC3CC(CC(C3)C1)C2
target-or-test-system: MCF7
category-label: inactive
--
molecule: COc1ccc(C(=O)/C=C/c2cc(O)c(O)cc2F)c(OC)c1
target-or-test-system: MCF7
category-label: active
--
molecule: Cc1cccc(NC(=S)Nc2cccc(Cl)c2)n1
target-or-test-system: MCF7
category-label: inactive

Please examine the following record next.
-- ask Outcome? Cc1ccc(S(=O)(=O)NC(=O)NC(C(=O)O)C(C)O)cc1 (stereo not given)
-- reply inactive

====

Tested on: NCI-H522
Assay: NCI tumour cell line growth inhibition, 48 h
Activity calls are given as the source filed them. Rule as the data show it: active = GI50 up to about 1.1 µM and inactive = higher.
# GI50 annotations

compound: O=C(NNC(=O)c1cc(/C=C/c2cccc([N+](=O)[O-])c2)nc(S)n1)Nc1ccc(Cl)cc1
GI50: 22.7 µM (inactive)
//
compound: N#C/C(N)=C(C#N)/N=C/NCc1ccccc1
GI50: > 100 µM (inactive)
//
compound: C/C(=N\NC(=O)c1ccccc1O)c1c(O)cc(C)oc1=O
GI50: 32.7 µM (inactive)

Query `Cc1cc2c(cc1C)N1Cc3c(ccc(C)c3C)N(C2)C1.Cc1cc2c(cc1C)N1Cc3cc(C)c(C)cc3N(C2)C1` yields GI50 of 53.6 µM (inactive)

Query CCC(Nc1ncnc2nc[nH]c12)C(=O)O (centres undefined) yields GI50 of > 100 µM (inactive)

Query `CC(=O)O[C@@H]1[C@H]2[C@@H](OC(=O)c3ccccc3)[C@@H](C)C[C@]2(O)[C@H](OC(C)=O)[C@@]2(C)[C@@H]3C[C@@](C)(OC(C)=O)C[C@@H](OC(C)=O)[C@@]3(OC(C)=O)C[C@@]12C` yields GI50 of > 10 µM (inactive)

Query `C[Si](C)(C)C#Cc1cc(-c2nc3ccccc3s2)ccc1N` yields GI50 of 13.9 µM (inactive)

Query O=C(Cc1ccccc1)NN1C(=O)C(Cl)C1c1ccc([N+](=O)[O-])cc1 (centres undefined) yields GI50 of 25.1 µM (inactive)

Query COC(=O)C1C2C=CC(C2)N1S(=O)(=O)c1ccccc1 (centres undefined) yields GI50 of > 100 µM (inactive)
